compounds and their reported GI50
# System: HCT-116
# EXPERIMENT: NCI tumour cell line growth inhibition, 48 h
Active and inactive are the calls of the source. No stated cut-off is given here; in the data, active = GI50 up to about 1.1 µM and inactive = higher.

Cc1cccc(C)c1NC(=S)NC=C1C(=O)c2ccccc2C1=O    4.62 µM (inactive)

Quote GI50 reported for CC12CCC(C(Nc3cc(C(F)(F)F)cc(C(F)(F)F)c3)C1=O)C2(C)C (stereo unspecified) please.
> 100 µM (inactive)

Quote GI50 reported for `COc1c(Br)cc(Br)c(OC)c1-c1[nH]c(Br)c(Br)c1Br` please.
3.25 µM (inactive)

Quote GI50 reported for Clc1ccc2c(c1)CC1C[N+]3=C(CCCC3)C1=C2 (stereo unspecified) please.
> 100 µM (inactive)

Quote GI50 reported for `CC(C)OP(=O)(CN(C)/C(F)=N\C(F)(F)F)OC(C)C` please.
> 100 µM (inactive)

Quote GI50 reported for `O=C(CCc1ccccc1)On1nnc2ccccc2c1=O` please.
> 100 µM (inactive)
